Recorded values, source PubChem BioAssay (EPA / NIEHS).

experiment_notes: TOX21_p53_BLA_p3_viability: Viability Assessment in the Tox21 HCT-116 p53 Agonism Beta-lactamase Assay, Phase 3 (AID 2283593);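 further: cells exposed to compound for 16 h before reading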
From the text: TOX21_p53_BLA_p3 is a cell-based, single-readout assay that uses HCT116, a human intestinal cell line, […] in a 1536-well plate.TOX21_p53_BLA_p3_viability is an assay readout measuring cellular ATP content and detected with CellTiter-Glo Luciferase-coupled ATP quantitation.TOX21_p53_BLA_p3_viability used a type of viability reporter where loss-of-signal activity can be used to understand changes in the cell viability. […]
Inconclusive results are not listed. The source made the active and inactive calls. How the source made its calls: active means hit-call score of the fitted dose curve at least 0.9, where 1 is the maximum; inconclusive means response in the unintended direction; inactive means score below 0.9.
Entry note: the call must match one of 1 (active), -1 (inactive)

Consider the following illustrative entries.
compound	discrete_label
NCCN1CCOCC1	-1
Cc1cc(C)c(N=Nc2c(O)c(S(=O)(=O)O)cc3cc(S(=O)(=O)O)ccc23)cc1C	-1
O=C1c2ccccc2C(=O)C1c1ccc2ccccc2n1	-1

What call does the record list for COc1cc(/C=C/c2ccccc2)oc(=O)c1 ? -1

Status in this test for COc1cc(NC(C)CCCN)c2ncccc2c1 (configuration not stated) ? -1

Assay result, entry CC(C)(C)C(=O)OCOC(=O)[C@@H]1N2C(=O)[C@@H](N=CN3CCCCCC3)[C@H]2SC1(C)C — outcome? -1

---

measurement_target: Cellular tumor antigen p53 (Homo sapiens)
experiment_notes: TOX21_p53_BLA_p3_ratio: Tox21 HCT-116 p53 Agonism Beta-lactamase Assay, Ratio, Phase 3 (AID 2283596)
Records with an inconclusive call do not appear. Calls of active or inactive are those of the source. How the source made its calls: active means hit-call score of the fitted dose curve at least 0.9, where 1 is the maximum; inconclusive means response in the unintended direction; inactive means score below 0.9.
Permitted responses: active, inactive

Entry Cc1onc(-c2c(F)cccc2Cl)c1C(=O)N[C@@H]1C(=O)N2[C@@H]1SC(C)(C)[C@@H]2C(=O)O : call = ? inactive

Short answer needed: outcome of this test for CN(C)CCC(c1ccccc1)c1ccccn1 (stereo unspecified) ? inactive

Give the logged outcome of this assay for the following molecule: CC1(C)O[C@H]2CC(=O)OC[C@]23[C@H]2CC[C@@]4(C)[C@H](c5ccoc5)OC(=O)[C@H]5O[C@]54[C@]2(C)C(=O)C[C@@H]13 inactive

Record request — test call for NCCS inactive

Recorded test outcome, item C=C1CC[C@H](O)C/C1=C/C=C1\CCC[C@]2(C)[C@@H]([C@H](C)CC[C@@H](O)C(C)(C)O)CC[C@@H]12 active

Status in this test for COc1cc(C(=O)OCCCN2CCCN(CCCOC(=O)c3cc(OC)c(OC)c(OC)c3)CC2)cc(OC)c1OC ? inactive

Assay outcome for CC1(C)S[C@@H]2[C@H](N3C(=O)C(c4ccccc4)NC3(C)C)C(=O)N2[C@H]1C(=O)O (stereo partly specified) : what was it? inactive

What was the test verdict on CC/C=C\C/C=C\C/C=C\C/C=C\C/C=C\C/C=C\CCC(=O)O ? inactive

Given C[C@@H]1C[C@H]2[C@@H]3C[C@H](F)C4=CC(=O)C=C[C@]4(C)[C@@]3(Cl)[C@@H](O)C[C@]2(C)[C@H]1C(=O)COC(=O)C(C)(C)C , state the outcome it received in this test. inactive

Hi, sorry to bother you, what did the test record for CC(CCc1ccc(O)cc1)NCCc1ccc(O)c(O)c1 (stereo unspecified) ? inactive

Test call for this molecule, please: CC[N+](C)(C)c1cccc(O)c1 inactive

How did this test come out for COC(=O)[C@]1(C)CCC[C@@]2(C)[C@H]1CC=C1C=C(C(C)C)CC[C@@H]12 ? inactive

What did this assay record as the result for c1ccc(CN(CC2=NCCN2)c2ccccc2)cc1 ? inactive

Short answer needed: outcome of this test for O=C(NOC[C@H](O)CO)c1ccc(F)c(F)c1Nc1ccc(I)cc1F ? inactive

Recorded call for Brc1ccc(Oc2ccc(Br)cc2)cc1 ? inactive

Hello, I am checking results. What call was entered for O=C(O)c1cc(-c2ccc(F)cc2F)ccc1O ? inactive

What is the recorded call for this molecule in the test? CCN(Cc1ccncc1)C(=O)C(CO)c1ccccc1 (stereo unspecified) inactive

Outcome? OCCCCCCO inactive
